Origin of values: PubChem BioAssay (NCI)

# Tested on: NCI-H460 lung
# assay overview: NCI-60 one-dose screen, 48 h (100 = growth as untreated, 0 = no growth, -100 = all killed)
# condition description: 10 µM unless noted
This is part of a sample that, as a whole, favours compounds with a hit. Of some 83,000 tested, about 20% had one in any assay. Calls of active or inactive are those of the source. The calls were made as follows: active = growth percent below 10; inactive = the rest.
endpoint: growth

molecule: CCN(CC)CCNC(=O)n1cc(-c2ccncc2)c(-c2ccc(Cl)c(OC)c2)n1
tested on: NCI-H460 lung
endpoint: growth
result: 104% (inactive)

molecule: COC(=O)c1ccc2c(c1)nc(-c1ccc(Cl)cc1)n2-c1cc(C(C)(C)C)[nH]n1
tested on: NCI-H460 lung
endpoint: growth
result: 45.1% (inactive)

molecule: S=C(Cc1ccccc1)N1CCN(c2ccccc2Cl)CC1
tested on: NCI-H460 lung
endpoint: growth
result: 107% (inactive)

molecule: COc1cc(OC)c(C(=O)/C=C/c2cccc(OC(C)=O)c2)cc1CC=C(C)C
tested on: NCI-H460 lung
endpoint: growth
result: 89.4% (inactive)

molecule: CCCCCCCCCCCCCC
tested on: NCI-H460 lung
endpoint: growth
result: 108% (inactive)

molecule: COc1cc(C2C(C#N)=C(N)Oc3cc4c(cc32)OCO4)cc2c1OCO2 (centres undefined)
tested on: NCI-H460 lung
endpoint: growth
result: 12.4% (inactive)

molecule: COc1ccc(-c2cnnn2-c2nonc2-n2cccc2)cc1
tested on: NCI-H460 lung
endpoint: growth
result: 7.52% (active)

molecule: O=P(O)(O)C(O)(Cc1cccnc1)P(=O)(O)O
tested on: NCI-H460 lung
endpoint: growth
result: 111% (inactive)

molecule: O=C(Nc1ccc(Br)cc1)Nc1cccc(Br)c1
tested on: NCI-H460 lung
endpoint: growth
result: 12.2% (inactive)

molecule: Clc1cc(Cl)cc(-c2cnc3nonc3n2)c1
tested on: NCI-H460 lung
endpoint: growth
result: 106% (inactive)

molecule: COc1ccc(-c2cc(C(=O)Nc3ccc(C)cc3)nc3[nH]c(=O)sc23)cc1
tested on: NCI-H460 lung
endpoint: growth
result: 68.8% (inactive)

molecule: O=C(N/N=C/c1ccc([N+](=O)[O-])cc1)c1ccccc1Nc1ccnc(C(F)(F)F)c1
tested on: NCI-H460 lung
endpoint: growth
result: 94.3% (inactive)

molecule: O=C(O)CSc1ccc(NCc2oc(CO)cc(=O)c2O)cc1
tested on: NCI-H460 lung
endpoint: growth
result: 110% (inactive)

molecule: CN1CCCN(CCNc2nccc(-c3c(-c4cccc(O)c4)nc4sccn34)n2)S1(=O)=O
tested on: NCI-H460 lung
endpoint: growth
result: 40.2% (inactive)

molecule: O=C(c1ccccc1)c1cccc(C(Br)Br)c1
tested on: NCI-H460 lung
endpoint: growth
result: 66.4% (inactive)

molecule: COC(=O)C(Br)(C(=O)OC)C(Br)C(Br)C(Br)c1ccccc1 (centres undefined)
tested on: NCI-H460 lung
endpoint: growth
result: 100% (inactive)

molecule: CC(=O)O[C@@H]1CC2C(C)(C)CCCC2(C)C2=C1C(=O)C(C(C)C)=CC2=O (some centres undefined)
tested on: NCI-H460 lung
endpoint: growth
result: -8.52% (active)

molecule: CCCCCN(CCCCC)C(=O)C(CCC(=O)O)NC(=O)c1ccc(Cl)c(Cl)c1 (centres undefined)
tested on: NCI-H460 lung
endpoint: growth
result: 106% (inactive)

molecule: CC1(C)OC2OC3C(CN)OC(c4ccccc4)OC3C2O1 (centres undefined)
tested on: NCI-H460 lung
endpoint: growth
result: 124% (inactive)

molecule: CCCCOC(=O)c1cc(O)c(O)c(O)c1
tested on: NCI-H460 lung
endpoint: growth
result: 58.9% (inactive)

molecule: COc1ccc2nc3ccccc3c(NCc3ccc(Cl)cc3)c2c1
tested on: NCI-H460 lung
endpoint: growth
result: 12.5% (inactive)

molecule: NS(=O)(=O)c1ccc(CCn2c(SCC(=O)N/N=C/c3cc4ccccc4[nH]3)nc3ccccc3c2=O)cc1
tested on: NCI-H460 lung
endpoint: growth
result: 30.4% (inactive)

molecule: FC(F)(F)c1cc(-c2nnc3n2N=C(Cl)CS3)cc(C(F)(F)F)c1
tested on: NCI-H460 lung
endpoint: growth
result: 107% (inactive)

molecule: NS(=O)(=O)c1ccc(CCn2c(SCC(=O)N/N=C/c3ccccc3O)nc3ccccc3c2=O)cc1
tested on: NCI-H460 lung
endpoint: growth
result: 23.1% (inactive)

molecule: COc1cc(NC(=O)CSc2nc3ccc(Cl)cc3c(=O)n2-c2ccccc2)cc(OC)c1OC
tested on: NCI-H460 lung
endpoint: growth
result: 98.2% (inactive)

molecule: NC(N)=NC1CCCCC1
tested on: NCI-H460 lung
endpoint: growth
result: 113% (inactive)

molecule: ClCCn1cnc2c(SCc3ccccc3Cl)ncnc21
tested on: NCI-H460 lung
endpoint: growth
result: 2.49% (active)

molecule: Cc1cc(O)ccc1Sc1ccccc1[N+](=O)[O-]
tested on: NCI-H460 lung
endpoint: growth
result: 96.4% (inactive)

molecule: Cc1cc(C#Cc2ccc(C(C)(C)C)cc2)ccc1-n1c(/C=C/c2c(Cl)cccc2Cl)nc2ccccc2c1=O
tested on: NCI-H460 lung
endpoint: growth
result: 96.3% (inactive)

molecule: COc1ccc2c(c1)sc1nc(-c3ccccc3)c(-c3cccc4ccccc34)n12
tested on: NCI-H460 lung
endpoint: growth
result: 8.82% (active)

molecule: Cc1ccccc1NC(=O)c1sc2nc3c(cc2c1N)C(=O)CCC3
tested on: NCI-H460 lung
endpoint: growth
result: 15.3% (inactive)

molecule: COCc1nc(NS(=O)(=O)c2ccc(N)cc2)nc(C)c1Br
tested on: NCI-H460 lung
endpoint: growth
result: 106% (inactive)

molecule: Cc1c(C(=O)CCl)c(=O)n(-c2ccccc2)n1C
tested on: NCI-H460 lung
endpoint: growth
result: 81.2% (inactive)

molecule: OC(COCc1ccccc1)COCc1ccccc1
tested on: NCI-H460 lung
endpoint: growth
result: 112% (inactive)

molecule: CC1(C)CC(=O)c2cc3c(N)c(C(=O)Nc4ccc(Cl)cc4)sc3nc2C1
tested on: NCI-H460 lung
endpoint: growth
result: 109% (inactive)

molecule: COc1ccc(-c2cc(-c3ccc(OC)cc3)c3sc(=O)[nH]c3n2)cc1
tested on: NCI-H460 lung
endpoint: growth
result: 94% (inactive)

molecule: CC1OC(n2c3ccccc3c3c4c(c5c6ccccc6[nH]c5c32)C(=O)N(CCN2CCOCC2)C4=O)CC(O)C1O (centres undefined)
tested on: NCI-H460 lung
endpoint: growth
result: 3.35% (active)

molecule: COc1ccc([C@H]2c3[nH]c4ccccc4c3C[C@H]3C(=O)N(CCCCCCC(=O)NO)CC(=O)N23)cc1
tested on: NCI-H460 lung
endpoint: growth
result: 47% (inactive)

molecule: CCN(CC)CC(=O)Nc1c(C)ccc(N)c1C
tested on: NCI-H460 lung
endpoint: growth
result: 108% (inactive)

molecule: CCCCCCCOc1cccc(/C=C2\N=C3SCCCN3C2=O)c1
tested on: NCI-H460 lung
endpoint: growth
result: 103% (inactive)

molecule: O=C(Nc1cccc(N=Cc2c(O)ccc3ccccc23)c1)c1ccccc1
tested on: NCI-H460 lung
endpoint: growth
result: 111% (inactive)

molecule: ClC1=NC(Cl)C(Cl)=N/C1=N\c1ncn[nH]1 (centres undefined)
tested on: NCI-H460 lung
endpoint: growth
result: 73.3% (inactive)

molecule: CCN(CC)Cc1cc(Nc2ccnc3ccc(OC)cc23)ccc1O
tested on: NCI-H460 lung
endpoint: growth
result: 20.1% (inactive)

molecule: Cc1cc([N+](=O)[O-])c(C)cc1N
tested on: NCI-H460 lung
endpoint: growth
result: 109% (inactive)
